Biological target: Mitogen-activated protein kinase 12 (Homo sapiens) (UniProt P53778);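 further: values are averaged p38gamma kinase inhibition readings, compounds tested at 1 µM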
Sequence (P53778 whole entry): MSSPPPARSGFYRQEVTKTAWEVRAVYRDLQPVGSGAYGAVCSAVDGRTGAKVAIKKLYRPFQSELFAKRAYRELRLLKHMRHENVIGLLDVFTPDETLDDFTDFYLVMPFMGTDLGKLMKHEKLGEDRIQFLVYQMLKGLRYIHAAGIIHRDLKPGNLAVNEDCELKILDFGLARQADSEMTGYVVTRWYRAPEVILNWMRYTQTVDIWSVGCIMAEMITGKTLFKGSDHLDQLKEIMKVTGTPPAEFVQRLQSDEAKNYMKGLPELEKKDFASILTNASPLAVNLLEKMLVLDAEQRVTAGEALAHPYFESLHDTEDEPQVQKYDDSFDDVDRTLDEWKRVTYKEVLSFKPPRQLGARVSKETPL
Settings: at 1 µM
reported.metric: inhibition
# output: numeric value plus its unit

# annotated cases, reported inhibition shown
## Task Name the reported inhibition value associated with the compound CN(c1ccc(NC(=O)Nc2c(Cl)cccc2Cl)cc1)c1ccnc(Nc2cccc(CS(C)(=O)=O)c2)n1
## Result -0.86%

## Task Try CCc1cccc(CC)c1/C=C/c1cncc(C(=O)NC)c1 next.
## Result 1.19%

## Task Try Fc1ccc(-c2c(-c3ccncc3)nc3n2CCS3)cc1 next.
## Result 2.27%

## Task Try COc1cc(N2CCN(C(C)C)CC2)ccc1Nc1nc(Nc2ccc(F)cc2C(=O)NC[C@@H](O)CO)c2cc[nH]c2n1 next.
## Result 2.97%

Please find the next compound below.
## Task Name the reported inhibition value associated with the compound C/C(Nc1ccc(S(N)(=O)=O)cc1)=C1/C(=O)Nc2ccccc21
## Result -1.66%
